# SYSTEM: GST-JAK2(808-1132) (Homo sapiens)
# Construct: GST-JAK2(808-1132); purchased Invitrogen (Carlsbad, USA) #4288
# Sequence (O60674 808-1132): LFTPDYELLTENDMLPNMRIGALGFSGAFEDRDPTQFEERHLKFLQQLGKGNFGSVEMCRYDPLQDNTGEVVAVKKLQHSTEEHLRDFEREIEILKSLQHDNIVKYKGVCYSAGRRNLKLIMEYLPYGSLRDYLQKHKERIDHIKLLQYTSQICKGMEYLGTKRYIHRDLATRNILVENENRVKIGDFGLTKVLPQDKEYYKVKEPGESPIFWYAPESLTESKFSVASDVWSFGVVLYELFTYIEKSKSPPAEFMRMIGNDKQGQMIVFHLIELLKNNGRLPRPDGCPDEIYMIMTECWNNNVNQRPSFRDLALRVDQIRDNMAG
# ASSAY_DETAILS: JAK2 kinase assay (Caliper mobility shift, LabChip 3000)
# Type: biochemical
Values of IC50 strictly less than 8 nM map to T, and values of at least 8 nM map to F.

>>> df
                           structure_string                             system  assigned_label
0  CCN1CCN(C(=O)C2(c3ccc(-n4ccc5cnc(Nc6ccc(C)c(C)c6)nc54)cc3)CC2)CC1  GST-JAK2(808-1132) (Homo sapiens)               F
1  CCN1CCN(c2ccc(Nc3ncc4ccn(-c5ccc(CC(=O)N6CCN(C)CC6)cc5)c4n3)cc2C)CC1  GST-JAK2(808-1132) (Homo sapiens)               T
2  CN1CCN(Cc2cc(Nc3ncc4ccn(-c5cc(F)c(CN6CCOCC6)c(F)c5)c4n3)ccn2)CC1=O  GST-JAK2(808-1132) (Homo sapiens)               T
3  CN1CCN(C(=O)c2cccc(Nc3ncc4ccn(-c5ccc(S(C)(=O)=O)cc5)c4n3)c2)CC1  GST-JAK2(808-1132) (Homo sapiens)               F
4  Cc1ccc(Nc2ncc3ccn(-c4cc(F)c(CN5CCOCC5)c(F)c4)c3n2)cc1CN1CCN(C=O)CC1  GST-JAK2(808-1132) (Homo sapiens)               T
5  O=C(c1ccc(-n2ccc3cnc(Nc4ccc(F)cc4)nc32)cc1)N1CCOCC1  GST-JAK2(808-1132) (Homo sapiens)               T
